Taken from patent US12637473B2.

- Test system: RS4; 11 cells transfected shRNA control vector
- Experiment description: Cell growth inhibition by WST assay, shRNA control cells
- Format: cell-based
- Test parameters: Homo sapiens, 96 h; RS4;11 sh Control; 4 days
Assay metric: IC50 (nM)

[[record]]
molecule = "O=C1CCC(N2C(=O)c3cccc(NCCOCCOCCOCCNC(=O)c4ccc(NC(=O)[C@@H]5NC6(CCCCC6)[C@@]6(C(=O)Nc7cc(Cl)ccc76)[C@H]5c5cccc(Cl)c5F)cc4)c3C2=O)C(=O)N1 (stereo partly drawn)"
measured = 7.47


(1) O=C1CCC(N2Cc3c(NCCOCCOCCOCCNC(=O)c4ccc(NC(=O)[C@@H]5NC6(CCCCC6)[C@@]6(C(=O)Nc7cc(Cl)ccc76)[C@H]5c5cccc(Cl)c5F)cc4)cccc3C2=O)C(=O)N1 (stereo partly drawn)
(2) O=C(O)c1ccc(NC(=O)[C@@H]2NC3(CCCCC3)[C@@]3(C(=O)Nc4cc(Cl)ccc43)[C@H]2c2cccc(Cl)c2F)cc1 [Cpd. A, reference compound]
Query: Could you tell me which of these two has the smaller IC50 figure? First: 1 Second: 2 The response must carry the label of the picked entry.
Reply: 1
(1: 9.45 nM, 2: 97.5 nM)
